measured.endpoint: melting point

{"compound": "CC(O)COc1ccc(-c2ccc(C(CC3CCOCC3)c3ccc(S(=O)(=O)C4CC4)cc3)[nH]2)nc1 (stereo unspecified)", "result": "116 to 118 °C"}
{"compound": "CCN1c2ncc(CCc3ccncc3)cc2C(=O)N(C)c2ccc(C#N)nc21", "result": "149 to 150 °C"}
{"compound": "NC(=O)c1ccc(NC(=O)c2ccccc2SSc2ccccc2C(=O)Nc2ccc(C(N)=O)cc2)cc1", "result": "> 270 °C"}
{"compound": "CC(=O)Nc1ccc(C=[N+]([O-])Cc2ccccc2)cc1", "result": "231 to 238 °C"}
{"compound": "O=c1[nH]cnc2ccc(C=Cc3ccncc3)cc12", "result": "307 to 309 °C"}
{"compound": "COc1ccc(C(=O)c2c(-c3ccccc3)sc3ccccc23)cc1", "result": "107 to 109 °C"}
{"compound": "CCc1cnc2c(c1)C(=O)N(C(C)(C(N)=O)C(C)C)C2=O (stereo unspecified)", "result": "115 to 117 °C"}
{"compound": "CC1(C)CON(Cc2ccc(N)cc2Cl)C1=O", "result": "106 to 108 °C"}
{"compound": "COC(=O)Nc1cn2ccc(Sc3ccccc3)cc2n1", "result": "221 to 223 °C"}
{"compound": "O=C(CNC(=O)c1ccc(F)cc1)c1ccsc1", "result": "140 to 141 °C"}
{"compound": "O=C1C(c2ccccc2)=C(c2ccccc2)C(=O)N1c1cccc(Cl)c1", "result": "144 to 145 °C"}
{"compound": "CCC1(CCCCCl)C(=O)Nc2cc(F)ccc21 (stereo unspecified)", "result": "95 to 97 °C"}
{"compound": "CCNC(=O)c1sc(Cl)cc1[Si](C)(C)C", "result": "105 to 108 °C"}
{"compound": "CN(C)C(=O)COc1cc(Cl)ccc1C(=O)NCCN1CCN(C(=O)OC(C)(C)C)CC1", "result": "139 to 140 °C"}
{"compound": "O=C(O)c1cccc(-c2cccc3oc(Cc4ccc(F)c(F)c4)cc23)c1", "result": "194 to 195 °C"}
{"compound": "CC(C)(C)c1cc(Cl)c(O)c(C=O)c1", "result": "75 to 77 °C"}
{"compound": "CC1CN(c2c(F)cc3c(=O)c(C(=O)O)cn4c3c2OCC4C)CC1NC(=O)OC(C)(C)C (stereo unspecified)", "result": "206 to 207 °C"}
{"compound": "COc1c(Cl)cc(OCC=C(Cl)Cl)cc1C=O", "result": "78 °C"}
{"compound": "COC(=C1C2CC3CC(C2)CC1C3)c1cc(OC)cc(OC(=O)C(C)(C)C)c1", "result": "159 °C"}
{"compound": "CCC1C(C)=NN=C(c2ccc(OC)c(OC)c2)c2cc(Cl)ccc21 (stereo unspecified)", "result": "185 to 187 °C"}
{"compound": "Cc1c(C(F)(F)F)[nH]c(=O)n(-c2ccc(Br)cc2F)c1=O", "result": "188 to 189 °C"}
{"compound": "CCOC(=O)CCCCC(=O)c1c(C)cc(C)c(C)c1O", "result": "72 to 73 °C"}
{"compound": "Cc1[nH]cnc1CSCCNC(=S)NC#N", "result": "158 to 161 °C"}
{"compound": "COC(=O)COc1cc2c(c3c1c(C(=O)C(N)=O)c(C)n3Cc1ccccc1)CCC2", "result": "135 to 138 °C"}
{"compound": "CCOCc1nc2c(N)nc3cc(OCCCCCCNS(C)(=O)=O)ccc3c2n1CC(C)(C)NS(C)(=O)=O", "result": "176 to 180 °C"}
{"compound": "COCOc1cc(CCCOc2ncccc2CC(=O)O)n(Cc2ccc(Cl)cc2Cl)n1", "result": "101 to 102 °C"}
{"compound": "COc1ccc(C(C#Cc2ccccc2)CNC(C)=O)cc1OC1CCCC1 (racemic)", "result": "114 to 117 °C"}
{"compound": "Cn1c(C(F)(F)F)ccc(-c2ccc(Cl)cc2F)c1=O", "result": "103 to 104 °C"}
{"compound": "CNc1nn(C(=O)NC(C)C(C)Cc2ccc(Cl)cc2)c(=O)n1C (stereo unspecified)", "result": "222 to 224 °C"}
{"compound": "O=C(Nc1ccc(Cl)cc1)c1cccc(/C=C/c2ccccn2)c1", "result": "213 °C"}
{"compound": "CCCS(=O)(=O)c1nc[nH]n1", "result": "116 to 117 °C"}
{"compound": "COC(=O)CCC(C(=O)c1cccc(I)c1)c1ccccc1C (racemic)", "result": "106 to 108 °C"}
{"compound": "NC(=O)c1c(F)cccc1[N+](=O)[O-]", "result": "161 to 162 °C"}
{"compound": "CCOC(=O)N1CCSC1C1=C(C)NC(=O)CS1 (stereo unspecified)", "result": "146 to 147 °C"}
{"compound": "CCc1ccc(OCCCCCCN2CCN(c3nccs3)CC2)cc1", "result": "21 to 23 °C"}
{"compound": "COc1cc(O)ccc1C=CC(=O)c1ccc(O)cc1", "result": "210 to 212 °C"}
{"compound": "CCOC(=O)CC1CCC2C3CC=C4C(C)(C)C(O)CCC4(C)C3CCC12C (stereo unspecified)", "result": "127 to 129 °C"}
{"compound": "CCOC(=O)CCCCCOc1cc2c(c(Cl)c1Cl)C(=O)C(C)(C1CCCC1)C2 (stereo unspecified)", "result": "69 to 72 °C"}
{"compound": "O=C(CCc1ccccc1)N[C@H](Cc1ccc(C(F)(F)F)cc1)[C@@H](O)c1ccoc1 (racemic)", "result": "134 to 135 °C"}
{"compound": "CC1(c2cccc(NS(C)(=O)=O)c2)C2CN(Cc3ccccc3)CC21 (stereo unspecified)", "result": "117 to 118 °C"}
{"compound": "COc1ccc(-c2c(Cl)c(CN3CCCC3=O)nc3sc4cnccc4c23)cc1OC", "result": "228 to 230 °C"}
